# Target of assay: human chemokine receptor CXCR7 (Homo sapiens (Human), UniProt P25106)
# Sequence (P25106 whole entry): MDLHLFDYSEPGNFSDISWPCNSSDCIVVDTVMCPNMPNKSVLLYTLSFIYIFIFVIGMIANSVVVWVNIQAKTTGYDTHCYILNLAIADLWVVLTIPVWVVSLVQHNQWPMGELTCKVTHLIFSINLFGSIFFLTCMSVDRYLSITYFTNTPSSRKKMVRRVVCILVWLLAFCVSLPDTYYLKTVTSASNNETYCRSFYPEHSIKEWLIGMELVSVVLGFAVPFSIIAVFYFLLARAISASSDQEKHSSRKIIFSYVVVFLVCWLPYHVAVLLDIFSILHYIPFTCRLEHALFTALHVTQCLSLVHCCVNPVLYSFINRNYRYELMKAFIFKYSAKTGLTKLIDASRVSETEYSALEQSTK
# Test: Tango CXCR7-bla U2OS beta-arrestin recruitment assay (beta-lactamase reporter, FRET), antagonism of CXCL12/SDF1-α;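 also: compounds preincubated 15 min before CXCL12 addition, then 22 h at 37 °C, FRET emission ratio read with CCF4-AM substrate after 2 h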
# Type: cell-based
# Test context: antagonistic effect on CXCR7; Tango CXCR7-bla U2OS cells, CXCL12/SDF1-α at its EC80
Measured metric: IC50 (nM)
Note: unit nM is implicit; provide only the numeric part.

// solved cases for IC50 follow
[
  {
    "Compound": "O=C(N[C@@H]1CCN(C2CCCCC2)C[C@H]1C(=O)N1CCC(O)C1)c1cc(-c2ccc(F)cc2F)on1 (relative stereo)",
    "IC50 (nM)": 916
  },
  {
    "Compound": "O=C(N[C@@H]1CCN(CC2CC2)C[C@H]1C(=O)NC1(c2ccccn2)CC1)c1cc(-c2ccc(F)cc2F)no1 (racemic)",
    "IC50 (nM)": 36
  },
  {
    "Compound": "C[C@@H](NC(=O)[C@H]1CN(C2CCCCC2)CC[C@@H]1NC(=O)c1cc(-c2ccc(F)cc2F)no1)c1ccccn1 (single isomer, unassigned) [Example 1.125a]",
    "IC50 (nM)": 30
  },
  {
    "Compound": "CN(C)C(=O)[C@@H]1CN(Cc2ccn(C)c2)CC[C@H]1NC(=O)c1cc(-c2ccc(F)cc2F)on1",
    "IC50 (nM)": 179
  },
  {
    "Compound": "C[C@@H](NC(=O)[C@@H]1CN(C2CCCCC2)CC[C@H]1NC(=O)c1cc(-c2ccc(F)cc2F)no1)C1CCC1",
    "IC50 (nM)": 358
  },
  {
    "Compound": "CN(C)C(=O)[C@@H]1CN(Cc2ccccc2F)CC[C@H]1NC(=O)c1cc(-c2ccc(F)cc2F)on1",
    "IC50 (nM)": 777
  },
  {
    "Compound": "COCC(C)(C)NC(=O)[C@@H]1CN(C2CCCCC2)CC[C@H]1NC(=O)c1cc(-c2c(F)cc(F)cc2F)on1 (racemic) [Example 1.111]",
    "IC50 (nM)": 332
  },
  {
    "Compound": "O=C(N[C@H]1CCN(CC2CC2)C[C@@H]1C(=O)NC1(c2ncccn2)CC1)c1cc(-c2ccc(F)cc2F)no1",
    "IC50 (nM)": 8
  }
]

Challenge: Given the entry O=C(N[C@@H]1CCN(CC2CC2)C[C@H]1C(=O)NCc1ncccn1)c1cc(-c2ccc(F)cc2F)on1 , report its measured IC50.
Response given: 852

Challenge: Given the entry CN(C)C(=O)[C@@H]1CN(CCC2CC2)CC[C@H]1NC(=O)c1cc(-c2ccc(F)cc2F)on1 , report its measured IC50.
Response given: 83

Challenge: Given the entry Cc1cnc(CNC(=O)[C@@H]2CN(C3CCCCC3)CC[C@H]2NC(=O)c2cc(-c3ccc(F)cc3F)on2)s1 , report its measured IC50.
Response given: 198

Values were extracted from patent US11306078B2.
